Hello, the source for this data is PubChem BioAssay (Tox21), in case you need it.

# testName: qHTS assay to identify small molecule agonists of the retinoic acid receptor (RAR) signaling pathway (AID 1159553)
# measurementParameters: C3RL4 RARE luciferase reporter, agonist, 6 h
Records with an inconclusive call do not appear. The source made the active and inactive calls. The call rests on the fitted dose curve; in most records, active means well fitted activation curve with a large enough effect in the repeat runs; inconclusive means weak or mixed curves, or effect the other way; inactive means no such curve, though single readings can be large or run the other way.
Choose the fitting class; nothing outside True for active, False for inactive is accepted.

Call for entry CC(C)=CC1C(C(=O)OCc2cccc(Oc3ccccc3)c2)C1(C)C (configuration not stated) : False

Call for entry S=c1[nH]c2ccccc2[nH]1 : False

Call for entry O=[N+]([O-])/N=C1\NCCN1Cc1ccc(Cl)nc1 : False

Call for entry O=NN(c1ccccc1)c1ccccc1 : False

Call for entry COc1ccc(C=O)cc1OC : False

Call for entry CNC(=O)Oc1cccc2c1OC(C)(C)C2 : False

Call for entry C=CC(=O)OCC(CC)(COC(=O)C=C)COC(=O)C=C : True

---

# assayedSystem: Cytochrome P450 2C19 (Homo sapiens)
# testName: Cytochrome P450 Family 2 Subfamily C Member 19 (CYP2C19) small molecule antagonists: luciferase reporter qHTS assay (AID 1671197); further: nearly all actives have a fitted effect of over 65% in size; further: potency means the concentration at half of the fitted maximal effect
# measurementParameters: P450-Glo CYP2C19 enzyme, luciferin luminescence, 1 h; series mostly up to 115 µM
Inconclusive results are not listed. Calls of active or inactive are those of the source. Calls follow the shape of the dose curve; as a rule, active = well fitted inhibition curve with a large enough effect in the repeat runs; inconclusive = weak or mixed curves; inactive = no such curve, though single readings can be large or run the other way.
readoutLabel: Potency

Examples with answers:
CC(C)=CC1C(C(=O)OCc2cccc(Oc3ccccc3)c2)C1(C)C (centres undefined); 7.96 µM (active)
CC(C)(C#N)N=NC(C)(C)C#N; inactive
CN(C)P(=O)(N(C)C)N(C)C; inactive
O=NN1CCOCC1; inactive
Nc1ncn[nH]1; inactive

Give Cytochrome P450 2C19 (Homo sapiens) Potency for the following compound: CNC(=S)S 38.9 µM (active)

Give Cytochrome P450 2C19 (Homo sapiens) Potency for the following compound: CC1CC(=O)O1 (centres undefined) inactive

Give Cytochrome P450 2C19 (Homo sapiens) Potency for the following compound: Clc1cccc(C(Cl)(Cl)Cl)n1 inactive

---

# assayedSystem: Aryl hydrocarbon receptor (Homo sapiens)
# testName: qHTS assay to identify small molecule that activate the aryl hydrocarbon receptor (AhR) signaling pathway (AID 743085); further: nearly all actives have a fitted effect of over 15% in size;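 on activation: HG2L7.5c1 human HepG2 liver cells with stably integrated DRE-driven firefly reporter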
# measurementParameters: HepG2 AhR-luc (HG2L7.5c1), luciferase, 24 h; series mostly up to 70.3 µM
Results filed as inconclusive are left out. Active and inactive are the calls of the source. The call rests on the fitted dose curve; in most records, active means well fitted activation curve with a large enough effect in the repeat runs; inconclusive means weak or mixed curves; inactive means no such curve, though single readings can be large or run the other way.
Choose the fitting class; nothing outside active, inactive is accepted.

Answered cases to consult:
[Cl-].[Cl-].[Cl-].[Fe+3]; inactive
COP(=S)(OC)Oc1ccc(S(=O)(=O)N(C)C)cc1; inactive
CC(C)(O)C#N; inactive

Call for entry CS(=O)(=O)NC(=O)c1cc(Oc2ccc(C(F)(F)F)cc2Cl)ccc1[N+](=O)[O-] : inactive

Call for entry Cl : inactive

Call for entry CCNCC : inactive

Call for entry CC(C)Nc1nc(Cl)nc(NC(C)C)n1 : inactive

Call for entry CNC(=O)CSP(=S)(OC)OC : inactive

Call for entry COP(=S)(OC)Oc1ccc(Sc2ccc(OP(=S)(OC)OC)cc2)cc1 : inactive

Call for entry COC(=O)Nc1nc2ccccc2[nH]1 : active

Call for entry Brc1ccc(Br)cc1 : inactive

Call for entry CC(C)(C#N)N=NC(C)(C)C#N : inactive

Call for entry COc1ccc(CO)cc1 : inactive

---

# testName: qHTS RealTime-Glo MT Cell Viability Assay in HepG2 cells - 16 hour (AID 1224885); further: nearly all actives have a fitted effect of over 50% in size
# measurementParameters: RealTime-Glo luminescence; series mostly up to 76.8 µM
Results filed as inconclusive are left out. Activity calls are given as the source filed them. Calls follow the shape of the dose curve; as a rule, active = well fitted cell-killing curve with a large enough effect in the repeat runs; inconclusive = weak or mixed curves; inactive = flat fitted curve, though single readings scatter.
Choose the fitting class; nothing outside active, inactive is accepted.

Answered cases to consult:
CC(C)CON=O; inactive
CNC(=O)Oc1cccc2c1OC(C)(C)C2; inactive
[Cl-].[Cl-].[Cl-].[Fe+3]; inactive

Call for entry Nc1ccc([N+](=O)[O-])cc1N : inactive

Call for entry CC(C)(O)C#N : inactive

Call for entry CCOP(=S)(OCC)SCSC(C)(C)C : inactive

---

# testName: A CellTox Green Cytotoxicity Assay to monitor cytotoxicity in HEK293 cells - 16 hour (AID 1224888); further: nearly all actives have a fitted effect of over 35% in size
# measurementParameters: CellTox Green fluorescence; series mostly up to 76.8 µM
Results filed as inconclusive are left out. The source made the active and inactive calls. Calls follow the shape of the dose curve; as a rule, active = well fitted activation curve with a large enough effect in the repeat runs; inconclusive = weak or mixed curves; inactive = flat fitted curve, though single readings scatter.
Choose the fitting class; nothing outside T for active, F for inactive is accepted.

Answered cases to consult:
COP(=O)(NC(C)=O)SC (stereo not drawn); F
C=CC(=O)OCC(CC)(COC(=O)C=C)COC(=O)C=C; F
CC(O)CN(CC(C)O)CC(C)O (stereo not drawn); F
CCOP(=S)(OCC)OP(=S)(OCC)OCC; F
Brc1ccc(Br)cc1; F

Call for entry NN=C(N)N : F

Call for entry OCCOCCO : F

Call for entry COP(=S)(OC)Oc1ccc(S(=O)(=O)N(C)C)cc1 : F

Call for entry CS(=O)(=O)NC(=O)c1cc(Oc2ccc(C(F)(F)F)cc2Cl)ccc1[N+](=O)[O-] : F

Call for entry COC(=O)Nc1nc2ccccc2[nH]1 : F

Call for entry Clc1cccc(Cl)c1 : F

Call for entry O=[N+]([O-])c1ccc(Nc2ccccc2)cc1 : F

Call for entry CC(C)(c1ccccc1)c1ccc(O)c(C(C)(C)c2ccccc2)c1 : T

---

# assayedSystem: Nuclear receptor subfamily 1 group I member 3 (Homo sapiens)
# testName: qHTS assay to identify small molecule agonists of the constitutive androstane receptor (CAR) signaling pathway (AID 1224839); further: nearly all actives have a fitted effect of over 15% in size;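 on activation: HepG2 cells stably carrying human CAR and a CYP2B6 luciferase reporter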
# measurementParameters: HepG2 hCAR CYP2B6-luciferase, agonist mode, 24 h; series mostly up to 92.4 µM
Results filed as inconclusive are left out. Activity calls are given as the source filed them. Calls come from the whole dose curve; as a rule, active = well fitted activation curve with a large enough effect in the repeat runs; inconclusive = weak or mixed curves; inactive = no such curve, though single readings can be large or run the other way.
Choose the fitting class; nothing outside active, inactive is accepted.

Answered cases to consult:
COc1ccc(O)c(C(C)(C)C)c1; inactive
N#CC(c1ccccc1)c1ccccc1; inactive
O=[N+]([O-])c1ccc(Cl)c([N+](=O)[O-])c1; inactive
CCOP(=S)(OCC)SCSC(C)(C)C; inactive
CC(C)CON=O; inactive

Call for entry CC(O)CN(CC(C)O)CC(C)O (stereo not given) : inactive

Call for entry c1ccc2c(c1)Nc1ccccc1S2 : active

---

# testName: qHTS assay to identify small molecule antagonists of the peroxisome proliferator-activated receptor delta (PPARd) signaling pathway - cell viability counter screen (AID 743213); further: nearly all actives have a fitted effect of over 50% in size
# measurementParameters: PPARd-bla HEK293H viability, CellTiter-Glo luminescence, 17 h; series mostly up to 62 µM
Records with an inconclusive call do not appear. Activity calls are given as the source filed them. The call rests on the fitted dose curve; in most records, active means well fitted cell-killing curve with a large enough effect in the repeat runs; inconclusive means weak or mixed curves; inactive means no such curve, though single readings can be large or run the other way.
Choose the fitting class; nothing outside active, inactive is accepted.

CCNCC; inactive

Call for entry N#CC(c1ccccc1)c1ccccc1 : inactive

Call for entry CNC(=O)CSP(=S)(OC)OC : inactive

Call for entry Nc1ncn[nH]1 : inactive

---

# assayedSystem: Estrogen receptor (Homo sapiens)
# testName: qHTS assay to identify small molecule antagonists of the estrogen receptor alpha (ER-alpha) signaling pathway (AID 743069)
# measurementParameters: HEK293 ER-alpha-UAS-bla, beta-lactamase ratio, antagonist mode; series mostly up to 69.4 µM
Active and inactive are the calls of the source. Calls follow the shape of the dose curve; as a rule, active = well fitted curve in the direction sought with a large enough effect in the signal ratio in the repeat runs (not every such curve was filed as active); inconclusive = weak or mixed curves, or effect the other way; inactive = no such curve, though single readings can be large or run the other way; the % refers to the signal ratio.
Choose the fitting class; nothing outside y = active, n = inactive is accepted.

O=C(O)CF; n

Call for entry CNC(=S)S : n

Call for entry COc1ccc(O)c(C(C)(C)C)c1 : n

Call for entry CCOC(=O)c1ccccc1N : n

Call for entry CCCCC(C#N)(Cn1cncn1)c1ccc(Cl)cc1 (stereo not drawn) : n

Call for entry CN(C)P(=O)(N(C)C)N(C)C : n

Call for entry N#Cc1nn(-c2c(Cl)cc(C(F)(F)F)cc2Cl)c(N)c1S(=O)C(F)(F)F (stereo not drawn) : y

Call for entry N#Cc1cccnc1 : n

---

# testName: qHTS assay to identify small molecule agonists of the estrogen receptor alpha (ER-alpha) signaling pathway in the presence of an antagonist - cell viability counter screen (AID 1259386);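 further: cells exposed to compounds for 22 h at 37 °C before the viability read; nearly all actives have a fitted effect of over 30% in size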
# measurementParameters: VM7Luc4E2 viability, CellTiter-Fluor fluorescence, 22 h; series mostly up to 92.4 µM
Inconclusive results are not listed. Active and inactive are the calls of the source. The call rests on the fitted dose curve; in most records, active means well fitted cell-killing curve with a large enough effect in the repeat runs; inconclusive means weak or mixed curves, or effect the other way; inactive means no such curve, though single readings can be large or run the other way.
Choose the fitting class; nothing outside Yes = active, No = inactive is accepted.

C[N+](C)(C)CC(=O)O; No

Call for entry COP(=O)(NC(C)=O)SC (stereo not given) : No

Call for entry O=C1Nc2ccc(Cl)cc2C(c2ccccc2)=NC1O (stereo not given) : No

Call for entry COc1ccc(CO)cc1 : No

Call for entry Clc1cccc(C(Cl)(Cl)Cl)n1 : No

Call for entry Clc1cccc(Cl)c1 : No

Call for entry C[C@]12CCC(=O)C=C1CC[C@@H]1[C@@H]2CC[C@@]2(C)[C@H]1CC[C@]2(C)O : No

Call for entry ClC(Cl)(Cl)c1ccccc1 : No

Call for entry CN(C)c1ccccc1 : No

Call for entry CC(C)Nc1ccc(Nc2ccccc2)cc1 : Yes

Call for entry CCCCSP(=O)(SCCCC)SCCCC : No

Call for entry Cc1ccc(N=CN(C)C=Nc2ccc(C)cc2C)c(C)c1 : No

Call for entry N#CCCCCC#N : No
